B1: HDV Ribozyme (parent)
chain: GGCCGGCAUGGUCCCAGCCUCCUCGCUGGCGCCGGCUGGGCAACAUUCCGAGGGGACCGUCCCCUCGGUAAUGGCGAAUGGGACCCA

- Variants of: B1
- Assay Comment: self-cleavage, relative activity (ratio to wild type); higher = more cleavage; co-transcriptional
Each entry below lists one item and its recorded self-cleavage value.
# print the numeric value only

Reported self-cleavage of GGCCGGCAUGGUCGCAGCCUCCUCGCUGGCGCCGGCUGGGCAACAUUCCGAGGGGACUGUCCCCUCGGUAAUGGCGAAUGGGACCCA [C14G C58U] : 0.646
